- EXPERIMENTAL PROTOCOL: chemical genetic growth profiling, strain panel (AID 1159580);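 note: tested at 20 µM; growth read once vehicle control cultures reached saturation at 30 °C; 1 = growth at the plate median or of vehicle wells; lower values mean less growth of the strain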
- MEASUREMENT CONTEXT: S. cerevisiae deletion strains, growth OD, locus YPL051W, strain arl3, active compounds read low
Among all 5,500 compounds or so, about 2,000 (36%) were called active. Not shown: some 18% with an inconclusive outcome. The list shows a part of the results.
MEASUREMENT TYPE: normalized growth

[[record]]
compound = "C[C@H]1CC[C@@H](C(C)(C)O)CC2=C1CC[C@@H]2C"
result = "0.979 (inactive)"

[[record]]
compound = "O=C(Cn1ccnc1[N+](=O)[O-])NCCO"
result = "1.02 (inactive)"

[[record]]
compound = "COc1cc2occ(-c3ccccc3)c(=O)c2c(OC)c1C"
result = "0.942 (inactive)"

[[record]]
compound = "C=CCSCC1Nc2cc(Cl)c(S(N)(=O)=O)cc2S(=O)(=O)N1 (stereo unspecified)"
result = "1 (inactive)"

[[record]]
compound = "COc1cc(OC)c2c(=O)c(-c3ccccc3)coc2c1"
result = "0.936 (inactive)"

[[record]]
compound = "COc1ccc(-c2coc3cc(OC)cc(OC)c3c2=O)cc1"
result = "0.972 (inactive)"

[[record]]
compound = "C[N+]1(C)C2CC(OC(=O)[C@@H](CO)c3ccccc3)CC1C1OC12 (stereo partly specified)"
result = "0.988 (inactive)"

[[record]]
compound = "OCCOCCN1CCN(C2=Nc3ccccc3Sc3ccccc32)CC1"
result = "1.02 (inactive)"

[[record]]
compound = "C[C@@H]1C(=O)OC2[C@H](O)C34[C@@H]5OC(=O)[C@@]3(O[C@@H]3OC(=O)[C@H](O)[C@@]34[C@H](C(C)(C)C)[C@H]5O)[C@]21O (stereo partly specified)"
result = "0.985 (inactive)"

[[record]]
compound = "COc1c(OC)c2occc2c2oc(=O)ccc12"
result = "0.933 (inactive)"

[[record]]
compound = "Nc1nc2ncc(=O)[nH]c2c(=O)[nH]1"
result = "0.984 (inactive)"


* * *

- EXPERIMENTAL PROTOCOL: chemical genetic growth profiling, strain panel (AID 1159580);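 note: tested at 20 µM; growth read once vehicle control cultures reached saturation at 30 °C; 1 = growth at the plate median or of vehicle wells; lower values mean less growth of the strain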
- MEASUREMENT CONTEXT: S. cerevisiae deletion strains, growth OD, locus YPL106C, strain sse1, active compounds read low
Among all 5,500 compounds or so, about 2,000 (36%) were called active. Another 18% or so got no clear call; they are omitted. The list shows a part of the results.
MEASUREMENT TYPE: normalized growth

[[record]]
compound = "CC(=O)OC1CCC2(C)C(=CC=C3C2CCC2(C)C3CCC2C(C)/C=C/C(C)C(C)C)C1(C)C (stereo not drawn)"
measurement_type = "normalized growth"
result = "1.05 (inactive)"

[[record]]
compound = "C#CCCCCCCCCCCCC(O)CC(O)CO (stereo not drawn)"
measurement_type = "normalized growth"
result = "0.981 (inactive)"

[[record]]
compound = "CO[C@@]1(NC(=O)CSCC#N)C(=O)N2C(C(=O)O)=C(CSc3nnnn3C)CSC21 (stereo partly drawn)"
measurement_type = "normalized growth"
result = "0.948 (inactive)"

[[record]]
compound = "COC(=O)C1=CCCN(C)C1"
measurement_type = "normalized growth"
result = "1.04 (inactive)"

[[record]]
compound = "C#CCCCCCCCCCCCC(=O)CC(O)COC(C)=O (stereo not drawn)"
measurement_type = "normalized growth"
result = "1.01 (inactive)"

[[record]]
compound = "CC(=O)OCC(OC(C)=O)C(OC(C)=O)C(OC(C)=O)C(OC(C)=O)C(COC(C)=O)OC(C)=O (stereo not drawn)"
measurement_type = "normalized growth"
result = "1.01 (inactive)"

[[record]]
compound = "O=C1NC(=O)C(=O)C(=O)N1"
measurement_type = "normalized growth"
result = "0.99 (inactive)"

[[record]]
compound = "COc1cc([C@@H]2c3cc4c(c(O)c3C[C@H]3COC(=O)[C@@H]32)OCO4)cc(OC)c1OC"
measurement_type = "normalized growth"
result = "0.987 (inactive)"

[[record]]
compound = "CC(C)NC[C@H](O)COc1cccc2ccccc12"
measurement_type = "normalized growth"
result = "0.98 (inactive)"

[[record]]
compound = "C=CCCCCCCCCCCCC(O)CC(O)COC(C)=O (stereo not drawn) (tested in a mixture with another compound)"
measurement_type = "normalized growth"
result = "1.06 (inactive)"

[[record]]
compound = "C=CC(N)CCC(=O)O (stereo not drawn)"
measurement_type = "normalized growth"
result = "0.971 (inactive)"

[[record]]
compound = "CC1(C)NC(=O)N(c2ccc([N+](=O)[O-])c(C(F)(F)F)c2)C1=O"
measurement_type = "normalized growth"
result = "0.962 (inactive)"

[[record]]
compound = "C=C1CCC(C2CC(=O)OC2=O)C(=O)CCC2C1CC2(C)C (stereo not drawn)"
measurement_type = "normalized growth"
result = "1 (inactive)"

[[record]]
compound = "CCOC(=O)Nc1nc2ccccc2[nH]1"
measurement_type = "normalized growth"
result = "0.956 (inactive)"

[[record]]
compound = "COc1ccc2c(c1OC)C(=O)OC2[C@H]1c2c(cc3c(c2OC)OCO3)CCN1C (stereo partly drawn)"
measurement_type = "normalized growth"
result = "1.07 (inactive)"

[[record]]
compound = "Cc1cc(NC(=O)C2=C(O)c3ccccc3S(=O)(=O)N2C)no1"
measurement_type = "normalized growth"
result = "0.954 (inactive)"

[[record]]
compound = "O=S1OCC2C(CO1)C1(Cl)C(Cl)=C(Cl)C2(Cl)C1(Cl)Cl (stereo not drawn)"
measurement_type = "normalized growth"
result = "0.993 (inactive)"

[[record]]
compound = "C[C@H]1CC[C@@H](C(C)(C)O)CC2=C1CC[C@@H]2C"
measurement_type = "normalized growth"
result = "0.889 (inactive)"

[[record]]
compound = "C=C1CCC2C(CC2(C)C)C(=O)CCC1O (stereo not drawn)"
measurement_type = "normalized growth"
result = "0.958 (inactive)"

[[record]]
compound = "COc1ccc2c(c1)O[C@H]1c3ccc(OC)cc3OC[C@@H]21"
measurement_type = "normalized growth"
result = "1.03 (inactive)"

[[record]]
compound = "COc1cc2c(cc1OC)C1Cc3ccc(OC)c(OC)c3CN1CC2 (stereo not drawn)"
measurement_type = "normalized growth"
result = "1.02 (inactive)"

[[record]]
compound = "COc1ccc([C@H]2Oc3cc(OC)cc(OC)c3C[C@H]2O)cc1"
measurement_type = "normalized growth"
result = "1.07 (inactive)"

[[record]]
compound = "C[N+]1(C)C2CC(OC(=O)[C@@H](CO)c3ccccc3)CC1C1OC12 (stereo partly drawn)"
measurement_type = "normalized growth"
result = "0.94 (inactive)"

